target: H+/K+ ATPase (Oryctolagus cuniculus (Rabbit), UniProt P27112); assay: Determination of compounds' inhibition of H+/K+ ATPase enzyme activity; conditions: H+/K+ ATPase extracted from rabbit stomach; malachite green detection, 500 μM ATP, pH 6.5
Sequence (P27112 whole entry): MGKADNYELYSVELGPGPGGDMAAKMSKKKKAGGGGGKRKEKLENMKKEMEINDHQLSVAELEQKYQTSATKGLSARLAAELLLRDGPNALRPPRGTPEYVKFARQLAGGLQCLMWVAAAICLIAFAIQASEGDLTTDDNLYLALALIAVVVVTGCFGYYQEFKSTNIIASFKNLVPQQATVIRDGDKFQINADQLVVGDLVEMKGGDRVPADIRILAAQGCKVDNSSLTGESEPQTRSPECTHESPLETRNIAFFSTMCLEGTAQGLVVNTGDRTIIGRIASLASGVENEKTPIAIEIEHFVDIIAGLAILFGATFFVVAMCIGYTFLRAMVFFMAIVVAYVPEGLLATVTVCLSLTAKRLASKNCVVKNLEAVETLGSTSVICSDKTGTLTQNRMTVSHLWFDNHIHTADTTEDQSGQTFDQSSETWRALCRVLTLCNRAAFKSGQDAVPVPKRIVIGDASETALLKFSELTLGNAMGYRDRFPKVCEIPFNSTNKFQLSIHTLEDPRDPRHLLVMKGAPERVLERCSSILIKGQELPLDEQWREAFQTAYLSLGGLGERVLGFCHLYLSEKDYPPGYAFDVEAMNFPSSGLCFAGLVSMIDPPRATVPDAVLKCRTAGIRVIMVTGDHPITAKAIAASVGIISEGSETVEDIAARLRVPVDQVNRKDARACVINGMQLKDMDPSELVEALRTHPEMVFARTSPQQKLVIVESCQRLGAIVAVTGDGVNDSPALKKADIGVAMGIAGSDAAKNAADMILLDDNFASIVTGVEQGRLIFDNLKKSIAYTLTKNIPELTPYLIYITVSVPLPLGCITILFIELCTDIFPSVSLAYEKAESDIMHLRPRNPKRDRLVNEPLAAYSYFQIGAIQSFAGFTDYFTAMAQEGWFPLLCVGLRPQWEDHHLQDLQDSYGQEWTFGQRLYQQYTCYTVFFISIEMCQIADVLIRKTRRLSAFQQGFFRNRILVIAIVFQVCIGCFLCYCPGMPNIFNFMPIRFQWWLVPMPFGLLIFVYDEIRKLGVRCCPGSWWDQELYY
Sequence (P18597 whole entry partner): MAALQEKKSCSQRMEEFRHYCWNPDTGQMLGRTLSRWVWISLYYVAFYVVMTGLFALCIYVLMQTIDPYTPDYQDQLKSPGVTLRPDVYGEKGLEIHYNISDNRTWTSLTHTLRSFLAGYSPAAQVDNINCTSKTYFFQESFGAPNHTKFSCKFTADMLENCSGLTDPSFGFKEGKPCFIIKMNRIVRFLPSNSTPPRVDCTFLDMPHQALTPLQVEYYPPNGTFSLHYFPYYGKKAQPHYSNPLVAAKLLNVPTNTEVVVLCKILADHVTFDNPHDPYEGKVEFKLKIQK
pIC50: −log10 of the molar value.
Attribute: pIC50
REPORTED ENDPOINT: pIC50

[
  {
    "SMILES INPUT": "CN1CCN(c2cccc(Cn3nc4c(c3-c3ccccc3F)CN(C)C4)c2)CC1",
    "REPORTED ENDPOINT": "pIC50",
    "RESULT VALUE": 6.24
  },
  {
    "SMILES INPUT": "CN1Cc2nn(Cc3cccc(N4CCC(N5CCCCC5)CC4)c3)c(-c3ccccc3F)c2C1",
    "REPORTED ENDPOINT": "pIC50",
    "RESULT VALUE": 5.59
  },
  {
    "SMILES INPUT": "CN1Cc2nn(Cc3cccc(N4CCOCC4)c3)c(-c3ccccc3F)c2C1",
    "REPORTED ENDPOINT": "pIC50",
    "RESULT VALUE": 6.39
  },
  {
    "SMILES INPUT": "CN1Cc2nn(Cc3cccc(N4CCCC4)c3)c(-c3ccccc3F)c2C1",
    "REPORTED ENDPOINT": "pIC50",
    "RESULT VALUE": 5.73
  },
  {
    "SMILES INPUT": "CN1Cc2nn(Cc3cccc(N4CCCCC4)c3)c(-c3ccccc3F)c2C1",
    "REPORTED ENDPOINT": "pIC50",
    "RESULT VALUE": 6.37
  }
]
